biological target: WD repeat-containing protein 5 (Homo sapiens, UniProt P61964)
READOUT TYPE: Kd (nM)
Response body: numeric value in nM, unit text excluded.

Quick note, Kd for `Cc1c(F)c(N)cc(C(=O)Nc2cc(-c3ccc(C(=O)NCCCN)cc3)ccc2N2CCN(C)CC2)c1Cl` landed at 13.6

====

biological target: UniProt P61964; experiment: Binding affinity to WDR5 (unknown origin) fluorescence polarization assay
READOUT TYPE: pIC50
The scale used: pIC50 is minus the common logarithm of the concentration in molar units.

In [3]: df
Out[3]:
                               smiles_entry  observed_result
0  Cc1c(F)c(N)cc(C(=O)Nc2cc(-c3ccc(C(=O)NCCCN)cc3)ccc2N2CCN(C)CC2)c1Cl             8.13

The compound listed as `Cc1c(F)c(N)cc(C(=O)N(C)c2cc(C(=O)Oc3ccccc3)ccc2N2CCN(C)CC2)c1Cl` has a reported pIC50 of 7.58
